Target: PKB (Homo sapiens, UniProt P31749)
Construct: His; HA; made in house
Sequence (P31749 whole entry, species assumed): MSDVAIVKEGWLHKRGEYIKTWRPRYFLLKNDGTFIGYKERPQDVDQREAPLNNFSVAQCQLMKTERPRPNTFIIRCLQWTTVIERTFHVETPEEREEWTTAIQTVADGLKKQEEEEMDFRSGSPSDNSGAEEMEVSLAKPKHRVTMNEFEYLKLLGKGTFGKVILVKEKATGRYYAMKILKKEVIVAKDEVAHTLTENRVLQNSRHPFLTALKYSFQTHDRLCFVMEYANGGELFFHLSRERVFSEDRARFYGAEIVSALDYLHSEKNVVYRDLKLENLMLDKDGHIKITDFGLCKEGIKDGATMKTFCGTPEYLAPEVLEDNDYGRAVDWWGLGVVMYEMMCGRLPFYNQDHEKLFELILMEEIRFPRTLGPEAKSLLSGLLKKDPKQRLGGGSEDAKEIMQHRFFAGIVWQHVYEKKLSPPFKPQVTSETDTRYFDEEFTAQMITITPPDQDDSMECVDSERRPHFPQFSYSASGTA
Assay: PKB in vitro kinase activity assay (soluble His-HA-PKB / SPA bead screening)
Format: biochemical
Settings: 1 μM compound concentration, Assay 1
Where no end group is shown, it is not given here. Side-chain parts run from the residue outwards. [ ]: non-standard residue; d: D form. The star is where a group is joined. X1 = 5‑aminoethylsulfonamide isoquinoline, O=S(=O)(NCCN*)c1cccc2cnccc12; hLeu = CC(C)CC[C@H](N)C(=O)O; Orn = NCCC[C@H](N)C(=O)O; Nva = CCC[C@H](N)C(=O)O; Dap = NC[C@H](N)C(=O)O; βAla = NCCC(=O)O
assay metric: PKB-kinase (spa) Assay 1, % inhibition of kinase activity (%)
Answers are plain numbers, in %.

>>> quantitative_readout("60020-80: Arg-Pro-Arg-Orn-Glu(bAla-5-aminoethylsulfonamide isoquinoline)-Nva-Hol (RPR[Orn]E([βAla-X1])[Nva][hLeu])")
13

Dear colleague, could you please provide PKB-kinase (spa) Assay 1, % inhibition of kinase activity for the substances listed below?
1. 60020-11: Arg-Pro-Arg-Orn-Glu(5-aminoethylsulfonamide isoquinoline)-Orn-Phe (RPR[Orn]E(X1)[Orn]F)
2. 60020-6: Arg-Pro-Arg-Dap-Glu(5-aminoethylsulfonamide isoquinoline)-Ala-Hol (RPR[Dap]E(X1)A[hLeu])

Result:
1: 58; 2: 32

---

Assignment: determine reported pIC50 for the given substances.
Target: PKB (Homo sapiens, UniProt P31749)
Construct: His; HA; made in house
Test: PKB in vitro kinase activity assay (soluble His-HA-PKB / SPA bead screening)
Type: biochemical
Conditions: Table 3, linear 7-mer peptides; read-out: Activity PKB
Where no end group is shown, it is not given here.
Give bare numbers, as −log10 of the molar value.

>>> quantitative_readout("RPRRSSF-NH2 (C-terminus assumed) [AR 60003-53, Arg-Pro-Arg-Arg-Ser-Ser-Phe]")
5.52

Reported pIC50 of RPRMSSF-NH2 (C-terminus assumed) [AR 60003-50, Arg-Pro-Arg-Met-Ser-Ser-Phe] : 5.60

---

Target: PKB (Homo sapiens, UniProt P31749)
Construct: His; HA; made in house
Assay: PKB in vitro kinase activity assay (soluble His-HA-PKB / SPA bead screening)
Type: biochemical
Details: 1 μM compound concentration, Assay 2
Where no end group is shown, it is not given here. Side-chain parts run from the residue outwards. [ ]: non-standard residue; d: D form. The star is where a group is joined. X1 = 5‑aminoethylsulfonamide isoquinoline, O=S(=O)(NCCN*)c1cccc2cnccc12; hLeu = CC(C)CC[C@H](N)C(=O)O; Orn = NCCC[C@H](N)C(=O)O; Nva = CCC[C@H](N)C(=O)O; Dap = NC[C@H](N)C(=O)O; βAla = NCCC(=O)O
assay metric: PKB-kinase (spa) Assay 2, % inhibition of kinase activity (%)
One number for each entry, in %.

Solved cases below.
>>> quantitative_readout("60020-72: Arg-Pro-Arg-Dap-Glu(bAla-5-aminoethylsulfonamide isoquinoline)-Nva-Hol (RPR[Dap]E([βAla-X1])[Nva][hLeu])")
52
>>> quantitative_readout("60020-13: Arg-Pro-Arg-Orn-Glu(5-aminoethylsulfonamide isoquinoline)-Ala-Phe (RPR[Orn]E(X1)AF)")
29

Consider now this further substance.
Reported PKB-kinase (spa) Assay 2, % inhibition of kinase activity of 60020-76: Arg-Pro-Arg-Orn-Glu(bAla-5-aminoethylsulfonamide isoquinoline)-Orn-Hol (RPR[Orn]E([βAla-X1])[Orn][hLeu]) : 38
